- protocolDescription: Cytotoxicity against human Hep3B cells after 3 days by MTT assay
- Assay type: functional, cell-based, Hep 3B2
- testContext: 72 h
resultType: IC50

Find the recorded IC50 belonging to `C=C1C(=O)O[C@H]2/C=C(\C)C[C@@H]3C=C(C/C=C/[C@@](C)(O)CC[C@H]12)C(=O)O3` and report it. > 10 µM

Find the recorded IC50 belonging to `C=C1CC[C@H]2C(=C)C(=O)O[C@@H]2/C=C(\C)C[C@H]2C=C(CCC1=O)C(=O)O2` and report it. > 10 µM

Find the recorded IC50 belonging to `C=C1C(=O)O[C@H]2/C=C(\C)C[C@@H]3C=C(CC/C=C(\C)CC[C@H]12)C(=O)O3` and report it. 7.4 µM

Find the recorded IC50 belonging to `COc1cccc2c1C(=O)c1c(O)c3c(c(O)c1C2=O)C[C@@](O)(C(=O)CO)C[C@@H]3O[C@H]1C[C@H](N)[C@H](O)[C@H](C)O1` and report it. 0.48 µM

Find the recorded IC50 belonging to `C=C1C(=O)O[C@H]2/C=C(\C)C[C@@H]3C=C(CC[C@H]4O[C@@]4(C)CC[C@H]12)C(=O)O3` and report it. 9.3 µM
